- target entity: Recombinant human Cbl-b (aa 36-427) (Homo sapiens, UniProt Q13191)
- Construct: Recombinant human Cbl-b (aa 36-427) was expressed in E coli; biotin (biotinylated in vitro)
- Sequence (Q13191 36-427): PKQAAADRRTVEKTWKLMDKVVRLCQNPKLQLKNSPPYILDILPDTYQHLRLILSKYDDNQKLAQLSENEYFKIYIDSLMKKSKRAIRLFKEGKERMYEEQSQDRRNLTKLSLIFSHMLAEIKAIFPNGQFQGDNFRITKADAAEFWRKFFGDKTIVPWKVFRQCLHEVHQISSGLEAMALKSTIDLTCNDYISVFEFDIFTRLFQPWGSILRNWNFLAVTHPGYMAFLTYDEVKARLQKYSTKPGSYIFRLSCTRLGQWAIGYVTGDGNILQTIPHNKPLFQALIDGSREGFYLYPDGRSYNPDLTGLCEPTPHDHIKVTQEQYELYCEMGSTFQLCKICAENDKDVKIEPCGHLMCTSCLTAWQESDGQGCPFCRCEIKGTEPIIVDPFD
- test name: Cbl-b Biochemical Assay (TR-FRET)
- test parameters: 6 nM Cbl-b, 1-2.5 nM Src-Zap70, 0.5 mM ATP; HTRF signal at 520 nm
pIC50: −log10 of the molar value.
quantity: pIC50

Reference set, count: 6
[
  {
    "compound": "Cn1cnnc1-c1ccc(C#N)cc1-c1cc(NCCC#N)nc(-c2nc3cc(CN4CCC5(CC5)C4)cc(C(F)(F)F)c3o2)c1 [I-16]",
    "quantity": "pIC50",
    "result": "5.30 to 6.70"
  },
  {
    "compound": "C[C@H]1CCCN(Cc2cc(C(F)(F)F)c3oc(-c4cccc([C@H](c5nncn5C)C5COC5)c4)nc3c2)C1 [I-52]",
    "quantity": "pIC50",
    "result": "5.30 to 6.70"
  },
  {
    "compound": "Cn1cnnc1[C@H](c1cccc(-c2nc3cc(CN4CCC5(CCC5)C4)cc(C(F)(F)F)c3o2)c1)[C@H]1C[C@@H](C(F)(F)F)C1 [I-60]",
    "quantity": "pIC50",
    "result": "< 5.30"
  },
  {
    "compound": "Cn1cnnc1-c1ccc(C(F)(F)F)cc1-c1cc(NCCCC#N)nc(-c2nc3cc(CNCC4CC4)cc(C(F)(F)F)c3o2)c1 [I-54, formic acid]",
    "quantity": "pIC50",
    "result": "< 5.30"
  },
  {
    "compound": "C[C@H]1CCCN(Cc2cc(C(F)(F)F)c3oc(-c4cccc([C@@H](c5nncn5C)C5COC5)c4)nc3c2)C1 [I-53]",
    "quantity": "pIC50",
    "result": "< 5.30"
  },
  {
    "compound": "Cn1cnnc1-c1ccc(C#N)cc1-c1cc(NC[C@@H](O)CC#N)nc(-n2cc3c(C(F)(F)F)cc(CN4CCC5(CCC5)C4)cn3c2=O)c1 [I-50]",
    "quantity": "pIC50",
    "result": "> 6.70"
  }
]

// lookup pIC50 for C[C@H]1CCCN(Cc2cc(C(F)(F)F)c3oc(-c4cccc(C(c5nncn5C)C5CCC5)c4)nc3c2)C1 (stereo partly shown) [I-48] > 6.70
